Please respond with reported pIC50 for every item in the list.
- tested target: CDK9/Cyclin T1 (Homo sapiens (Human), UniProt P50750)
- Sequence (P50750 whole entry): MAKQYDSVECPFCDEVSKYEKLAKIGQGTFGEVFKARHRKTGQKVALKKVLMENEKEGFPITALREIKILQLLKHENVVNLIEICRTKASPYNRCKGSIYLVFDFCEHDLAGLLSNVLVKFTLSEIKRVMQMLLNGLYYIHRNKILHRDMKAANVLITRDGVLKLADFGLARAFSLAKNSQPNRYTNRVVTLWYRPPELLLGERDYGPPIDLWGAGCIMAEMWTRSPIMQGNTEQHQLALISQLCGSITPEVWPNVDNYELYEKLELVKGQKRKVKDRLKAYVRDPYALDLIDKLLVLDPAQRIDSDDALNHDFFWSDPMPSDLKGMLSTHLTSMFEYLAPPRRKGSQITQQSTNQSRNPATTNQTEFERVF
- Sequence (O60563 whole entry partner): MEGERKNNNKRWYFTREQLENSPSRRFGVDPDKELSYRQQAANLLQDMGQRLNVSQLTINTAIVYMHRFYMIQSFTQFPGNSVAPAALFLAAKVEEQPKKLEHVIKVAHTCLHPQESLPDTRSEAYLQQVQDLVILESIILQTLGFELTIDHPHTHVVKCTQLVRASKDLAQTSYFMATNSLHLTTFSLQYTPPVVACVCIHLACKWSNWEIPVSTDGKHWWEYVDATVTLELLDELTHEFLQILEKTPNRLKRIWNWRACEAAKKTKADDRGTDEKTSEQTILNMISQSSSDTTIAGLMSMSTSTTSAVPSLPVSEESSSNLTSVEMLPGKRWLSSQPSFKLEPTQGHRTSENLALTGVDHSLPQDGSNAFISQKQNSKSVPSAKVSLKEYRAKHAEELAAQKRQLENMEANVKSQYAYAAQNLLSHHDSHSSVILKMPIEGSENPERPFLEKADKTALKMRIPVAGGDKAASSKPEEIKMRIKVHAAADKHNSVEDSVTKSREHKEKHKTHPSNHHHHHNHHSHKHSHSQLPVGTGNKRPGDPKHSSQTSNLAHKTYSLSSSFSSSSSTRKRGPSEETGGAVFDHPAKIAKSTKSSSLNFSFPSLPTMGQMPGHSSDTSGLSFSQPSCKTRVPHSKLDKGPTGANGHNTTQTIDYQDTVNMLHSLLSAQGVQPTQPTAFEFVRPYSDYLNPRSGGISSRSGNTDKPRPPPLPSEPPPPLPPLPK
- assay name: CDK9 enzyme assay (LANCE ULight TR-FRET kinase assay)
- conditions: 1000 μM ATP, 100 nM ULight MBP, kinase reaction 1 hour
One number for each entry, as −log10 of the molar value.

Record excerpt, results attached:
CN1Cc2c(C3=CCN([C@H]4CC[C@@H](CC(=O)O)CC4)CC3)[nH]c3nccc(c23)-c2cc(F)ccc21 = 7.32
CS(=O)(=O)N1CC=C(c2[nH]c3nccc4c3c2CNc2ccc(F)cc2-4)CC1 = 7.21
CN1Cc2c(C3=C[C@@H](CO)NCC3)[nH]c3nccc(c23)-c2cc(F)ccc21 = 7.39
CS(=O)(=O)N1CC=C(c2[nH]c3nccc4c3c2CN(CC2CCOCC2)c2ccc(F)cc2-4)CC1 = 6.10
CN1Cc2c(C3CCN(CC(=O)O)CC3)[nH]c3nccc(c23)-c2cc(F)ccc21 = 6.82
CN1Cc2c(C3=CC4CN(CC(=O)N5CC(O)C5)CC4C3)[nH]c3nccc(c23)-c2cc(F)ccc21 (stereo not shown) = 7.03

stdin: // Input: `CN1Cc2c(C3=CCN([C@H]4CC[C@H](CC(=O)O)CC4)CC3)[nH]c3ncc(F)c(c23)-c2ccccc21` . Output its pIC50 only.
stdout: 7.14

###

- tested target: CDK9/Cyclin T1 (Homo sapiens (Human))
- assay name: CDK9 enzyme assay (LANCE ULight TR-FRET kinase assay)
- Assay type: biochemical
- conditions: 1000 μM ATP, 100 nM ULight MBP, kinase reaction 1 hour
Please respond with reported IC50 for every item in the list.
One number for each entry, in nM.

Record excerpt, results attached:
CC[C@H]1c2c(C3=CCN([C@H]4C[C@@H](C(=O)O)C4)CC3)[nH]c3nccc(c23)-c2cc(F)ccc2N1C = 110
CN1Cc2c(C3=CCN(CC(=O)OC(C)(C)C)CC3)[nH]c3ncc(F)c(c23)-c2cc(F)ccc21 = 100
CN1Cc2c(C3=CCC(NCC(=O)O)CC3)[nH]c3nccc(c23)-c2cc(F)ccc21 (stereo not drawn) = 86
CN(CC(O)CO)C(=O)CN1CC2C=C(c3[nH]c4nccc5c4c3CN(C)c3ccc(F)cc3-5)CC2C1 (stereo not drawn) = 99
CN(C)C(=O)CN1C2C=C(c3[nH]c4nccc5c4c3CN(C)c3ccc(F)cc3-5)CC1CCC2 (stereo not drawn) = 110
CC[C@H]1c2c(C3=CCN([C@H]4C[C@H](C(=O)O)C4)CC3)[nH]c3nccc(c23)-c2cc(F)ccc2N1C = 110
CC1c2c(C3=CCN(S(C)(=O)=O)CC3)[nH]c3nccc(c23)-c2cc(F)ccc2N1C (stereo not drawn) = 110
CN1Cc2c(C3=CCN(CC(=O)N4CC(O)C4)CC3)[nH]c3nccc(c23)-c2cc(F)ccc21 = 44
CN(CCO)C(=O)CN1CC2C=C(c3[nH]c4nccc5c4c3CN(C)c3ccc(F)cc3-5)CC2C1 (stereo not drawn) = 43
CN1Cc2c(C3=CCN(CC(=O)N4CCC[C@H]4CO)CC3)[nH]c3nccc(c23)-c2cc(F)c(F)cc21 = 45

For each listed entry, give its IC50.
1. CN1Cc2c(C3=CCN(CCS(N)(=O)=O)CC3)[nH]c3nccc(c23)-c2cc(F)ccc21
2. COC(=O)C[C@H]1CC[C@@H](N2CC=C(c3[nH]c4nccc5c4c3CN(C)c3cc(F)c(F)cc3-5)CC2)CC1
3. CN1Cc2c(C3=CCN(CC(=O)N4CC(O)C4)CC3)[nH]c3nccc(c23)-c2cc(F)c(F)cc21
4. CN1Cc2c(C3=CCCNC3)[nH]c3nccc(c23)-c2cc(F)ccc21
5. CN1Cc2c(-c3cccc(CC(=O)O)c3)[nH]c3nccc(c23)-c2cc(F)ccc21

stdout:
1: 24; 2: 47; 3: 52; 4: 46; 5: 100
